Assignment: determine reported cell viability for the given molecules.
# Tested on: MOLM14
# method.summary: cell viability relative to vehicle control; higher = less cytotoxic;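 also: after 48 h exposure read by CellTiter-Glo luminescence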
# particulars: 10 µM; SRSF2 genotype: SRSF2 P95H/wt
Counter-ions that a name gives are not always drawn.
Report as a plain number; the unit % is understood.

[Q] Please look up its cell viability: Nc1ccn([C@@H]2CS[C@H](CO)O2)c(=O)n1 [Lamivudine (Epivir)]
[A] 99.8

[Q] Suppose we examine the molecule CCCCCCCCOc1ccccc1C(=O)Nc1ccc(C(=O)OCC[N+](C)(CC)CC)cc1 [Otilonium Bromide] ; what cell viability value has been reported?
[A] 76.7

[Q] Need cell viability, item C=C1C[C@@]23CC[C@H]4[C@@](C)(CCC[C@@]4(C)C(=O)O[C@@H]4O[C@H](CO)[C@@H](O)[C@H](O)[C@H]4O)[C@@H]2CC[C@]1(O[C@@H]1O[C@H](CO)[C@@H](O)[C@H](O)[C@H]1O[C@@H]1O[C@H](CO)[C@@H](O)[C@H](O)[C@H]1O)C3 [Stevioside]
[A] 112

[Q] Given the molecule `C=C1C(=O)O[C@@H]2C[C@@]3(C)CCCC(=C)[C@@H]3C[C@H]12` , what is its reported cell viability?
[A] 12

[Q] Param item = `Cc1cc(-c2ncc(CC(=O)Nc3ccc(-c4cnccn4)cn3)cc2C)ccn1` ; retrieve measured cell viability.
[A] 48.8

[Q] I have this molecule here, CC(O)C(O)c1cnc2nc(N)[nH]c(=O)c2n1 (configuration not stated) , and I need its recorded cell viability.
[A] 109

[Q] cell viability for `O=C(O)C1=CO[C@@H](O[C@@H]2O[C@H](CO)[C@@H](O)[C@H](O)[C@H]2O)[C@H]2[C@@H]1C=C[C@]2(O)CO` ?
[A] 104

[Q] Suppose we examine the molecule `Cc1ccc(C)c(OCCCC(C)(C)C(=O)O)c1` ; what cell viability value has been reported?
[A] 106

[Q] What value of measured cell viability is listed for `CCN(CC)CCOC(=O)c1ccc(N)cc1` ?
[A] 107

[Q] Param item = Cc1cccc(C)c1NC(=O)C1CCCCN1C (configuration not stated) [Mepivacaine HCl] ; retrieve measured cell viability.
[A] 96.5

[Q] Would you mind telling me what cell viability value was observed for Cc1cnc(Nc2ccc(F)cc2Cl)nc1-c1c[nH]c(C(=O)NC(CO)c2cccc(Cl)c2)c1 (configuration not stated) ?
[A] 58.5

[Q] // query cell viability value for entry `CN(C)C/C=C/C(=O)Nc1ccc(C(=O)Nc2cccc(Nc3ncc(Cl)c(-c4c[nH]c5ccccc45)n3)c2)cc1`
[A] 0.23

[Q] Item under review: C[n+]1c2ccccc2nc2ccccc21 [Phenazine methosulfate] . Reported cell viability?
[A] 2.87

[Q] Data request, read-out cell viability, for O=c1c2ccccc2nc2n1CCc1c-2[nH]c2ccccc12 [Rutaecarpine (Rutecarpine)]
[A] 101

[Q] Report cell viability for O=C(Nc1ncc([N+](=O)[O-])s1)c1ccccc1O [Tizoxanide] please.
[A] 96.9

[Q] Item `CCn1cc(C(=O)O)c(=O)c2ccc(C)nc21` has what recorded cell viability?
[A] 105

[Q] Give the measured cell viability of C=C1CC2(O)OC3(CC2C(C)C)C(C)CCC13 (configuration not stated) .
[A] 97.8

* * *

# Test system: MARIMO
# method.summary: cell viability relative to vehicle control; higher = less cytotoxic
# particulars: 10 µM; SRSF2 genotype: SRSF2 P95H/wt
Structures can show the parent of a compound that is named as a salt.
Field: cell viability. Provide a value for each of the molecules that follow.
Your answer should be a plain number; it is taken to be in %.

[Q] Which cell viability reading was recorded for the molecule COC(=O)CCC(=O)CN [Methyl Aminolevulinate Hydrochloride] ?
[A] 92.2

[Q] What value of cell viability has been recorded for this entry: `COc1cc2c(Oc3ccc(NC(=O)C4(C(=O)Nc5ccc(F)cc5)CC4)cc3F)ccnc2cc1OCCCN1CCOCC1`
[A] 17.8

[Q] Which cell viability is reported for this molecule? `CN[C@@H](C)C(=O)N[C@H]1CN(C(=O)CC(C)C)CC[C@H]2CC[C@@H](C(=O)NC(c3ccccc3)c3ccccc3)N2C1=O`
[A] 64.5

[Q] Name the recorded cell viability for `COc1cc(/C=C/C(=O)O[C@H]2CC[C@]34C[C@]35CC[C@]3(C)[C@@H]([C@H](C)CCC=C(C)C)CC[C@@]3(C)[C@@H]5CC[C@H]4C2(C)C)ccc1O` .
[A] 98.5

[Q] Value lookup for cell viability; key = `C[C@@H]1[C@H]2c3cc4c(cc3O[C@@]35OCOC3=CC(=O)[C@H](C[C@H]1C)[C@@H]25)OCO4`
[A] 87.5

[Q] Endpoint output: cell viability of `CN1C(C(=O)Nc2ccccn2)=C(O)c2sc(Cl)cc2S1(=O)=O` . Value?
[A] 87.2

[Q] Which cell viability value is on record for `O=c1cc(-c2ccccc2)oc2c1ccc1ccccc12` ?
[A] 90.5
